system: LOX IMVI; assay: Cytotoxicity against human LOXIMVI cells assessed as cell growth at 0.01 uM after 48 hrs by sulforhodamine B assay; type: functional; conditions: read-out: Activity
# Lookup of reported growth at 0.01 µM keyed by entry
parameter.measured: growth at 0.01 µM (%)

molecule_smiles=COc1cc(C)cc(-c2c(-c3ccnc(-c4ccc(C(C)=O)cc4)c3)cnn2CC#N)c1 reading=105
molecule_smiles=COc1cc(C)cc(-c2nn(CC#N)cc2-c2ccc(-c3cccc(C(C)=O)c3)nc2)c1 reading=96
molecule_smiles=COc1cc(C)cc(-c2c(-c3ccnc(-c4ccc(N(C)C)cc4)c3)cnn2CC#N)c1 reading=39
molecule_smiles=Cc1cc(O)cc(-c2nn(CC#N)cc2-c2ccnc(-c3ccc(Oc4ccccc4)cc3)c2)c1 reading=101
molecule_smiles=Cc1cc(O)cc(-c2nn(CC#N)cc2-c2ccnc(-c3ccc(N(C)C)cc3)c2)c1 reading=104
molecule_smiles=COc1cc(C)cc(-c2nn(CC#N)cc2-c2ccnc(-c3ccc(N(C)C)cc3)c2)c1 reading=105
